Target: APOL1 G2 (Homo sapiens, UniProt O14791, DEL388-389)
Assay: Rescue of HEK293 cell death caused by overexpression of APOL1 (CellTiter-Glo luminescence), HEK293/T-REx APOL1 G2/clone #2
Settings: reversal of cell death caused by overexpression of APOL1; geometric mean of at least 2 assay runs, † = single assay run (technical duplicate)
Recorded EC50, one value per entry.
Please state the figure in nM; there is no need to write the unit.

Example cases with answers are listed next.
| COMPOUND | EC50, nM |
| --- | --- |
| CS(=O)(=O)c1ccc(OCC2CCCCN(CCc3cccc(Cl)c3)C2)cc1 (stereo not shown) [Compound 1] | 528 |
| CC1CC(COc2ccc(S(C)(=O)=O)cc2)CN1CCc1cccc(Cl)c1 (single isomer, unassigned) [Compound 53] | 1120 |

Inquiry: Tell me EC50 reported for C[C@@H]1C[C@H](COc2ccc(S(C)(=O)=O)cc2)CN1CC(O)c1cccc(Cl)c1 (single isomer, unassigned) [Compound 214]
Reply text: 679

---

Recorded pEC50, one value per entry.
Target: APOL1 G2 (Homo sapiens, UniProt O14791, DEL388-389)
Sequence (O14791 with tags, fused parts or gaps DEL388-389): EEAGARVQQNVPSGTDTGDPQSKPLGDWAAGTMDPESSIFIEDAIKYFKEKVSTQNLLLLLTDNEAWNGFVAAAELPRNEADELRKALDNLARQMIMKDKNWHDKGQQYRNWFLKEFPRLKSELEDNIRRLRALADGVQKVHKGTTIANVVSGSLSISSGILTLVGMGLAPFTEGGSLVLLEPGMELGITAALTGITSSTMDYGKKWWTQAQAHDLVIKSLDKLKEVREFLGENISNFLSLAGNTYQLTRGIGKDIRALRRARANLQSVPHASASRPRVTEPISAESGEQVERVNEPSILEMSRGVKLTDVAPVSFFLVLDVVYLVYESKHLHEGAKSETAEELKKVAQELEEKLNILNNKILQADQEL
Test: Rescue of HEK293 cell death caused by overexpression of APOL1 (CellTiter-Glo luminescence), HEK293/T-REx APOL1 G2/clone #2
Settings: reversal of cell death caused by overexpression of APOL1; geometric mean of at least 2 assay runs, † = single assay run (technical duplicate)
Keep in mind that pEC50 stands for -log10 of concentration in molar terms.

| COMPOUND | pEC50 |
| --- | --- |
| C[C@@H]1CN(CC(O)c2cccc(C#N)c2)C[C@H]1COc1ccc(S(C)(=O)=O)cc1 (some centres unmarked) [Compound 126] | 6.25 |
| CS(=O)(=O)c1ccc(CCC2CCCN(CCc3cccc(Cl)c3)C2)cc1 (single isomer, unassigned) [Compound 40] | 6.13 |
| CS(=O)(=O)c1ccc(OCC2CN(CCc3cccc(Cl)c3)CCC2O)cc1 (single isomer, unassigned) [Compound 32] | 5.24 |
| COCCS(=O)(=O)c1ccc(OC[C@H]2CN(CCc3cccc(Cl)c3)C[C@@H]2C)cc1 (single isomer, unassigned) [Compound 110] | 6.87 |

Inquiry: Tell me pEC50 reported for CC1CC(COc2ccc(S(C)(=O)=O)cc2)CN1CCc1cccc(Cl)c1 (single isomer, unassigned) [Compound 57]
Reply text: 5.77

Inquiry: Tell me pEC50 reported for CCc1ccccc1CCNC[C@H](O)COc1ccc(N(C)S(C)(=O)=O)cc1
Reply text: 5.56

Inquiry: Tell me pEC50 reported for C[C@H](CNCCc1cccc(Cl)c1)COc1ccc(N(C)S(C)(=O)=O)cc1
Reply text: 6.03

Inquiry: Tell me pEC50 reported for CS(=O)(=O)c1ccc(OC[C@@H]2CCCN(CC(O)c3cccc(Cl)c3)C2)cc1 (single isomer, unassigned) [Compound 21]
Reply text: 5.99

Inquiry: Tell me pEC50 reported for C[C@@H]1C[C@H](COc2ccc(S(C)(=O)=O)cc2)CN1CC(O)c1cccc(C#N)c1 (single isomer, unassigned) [Compound 116]
Reply text: 7.12

Inquiry: Tell me pEC50 reported for C[C@@H]1CN(CC(O)c2cccc(Cl)c2)C[C@H]1COc1ccc(S(C)(=O)=O)cc1 (single isomer, unassigned) [Compound 125]
Reply text: 5.81

Inquiry: Tell me pEC50 reported for C[C@@H]1CN(CCc2cc(F)cc(C#N)c2)C[C@H]1COc1ccc(S(C)(=O)=O)cc1
Reply text: 6.65

Inquiry: Tell me pEC50 reported for CC(Cc1cccc(Cl)c1)NC[C@H](O)COc1ccc(N(C)S(C)(=O)=O)cc1 (single isomer, unassigned) [Compound 95]
Reply text: 5.16

Inquiry: Tell me pEC50 reported for CN(c1ccc(OC[C@@H](O)CN2CCC(c3cccc(Cl)c3)C2(C)C)cc1)S(C)(=O)=O (single isomer, unassigned) [Compound 70]
Reply text: 6.52

Inquiry: Tell me pEC50 reported for CS(=O)(=O)c1ccc(OC[C@H]2CCN(CCc3cccc(Cl)c3)C2)cc1
Reply text: 5.83
